Molecular target: T1, biotinylated recombinant mouse IL-12Rβ2 (mouse, UniProt P97378 24-637, random biotinylated)
T1 construct: Recombinant protein produced in-house, biotinylated; also called mIL-12RB2; mouse IL-12RB2
T1 sequence: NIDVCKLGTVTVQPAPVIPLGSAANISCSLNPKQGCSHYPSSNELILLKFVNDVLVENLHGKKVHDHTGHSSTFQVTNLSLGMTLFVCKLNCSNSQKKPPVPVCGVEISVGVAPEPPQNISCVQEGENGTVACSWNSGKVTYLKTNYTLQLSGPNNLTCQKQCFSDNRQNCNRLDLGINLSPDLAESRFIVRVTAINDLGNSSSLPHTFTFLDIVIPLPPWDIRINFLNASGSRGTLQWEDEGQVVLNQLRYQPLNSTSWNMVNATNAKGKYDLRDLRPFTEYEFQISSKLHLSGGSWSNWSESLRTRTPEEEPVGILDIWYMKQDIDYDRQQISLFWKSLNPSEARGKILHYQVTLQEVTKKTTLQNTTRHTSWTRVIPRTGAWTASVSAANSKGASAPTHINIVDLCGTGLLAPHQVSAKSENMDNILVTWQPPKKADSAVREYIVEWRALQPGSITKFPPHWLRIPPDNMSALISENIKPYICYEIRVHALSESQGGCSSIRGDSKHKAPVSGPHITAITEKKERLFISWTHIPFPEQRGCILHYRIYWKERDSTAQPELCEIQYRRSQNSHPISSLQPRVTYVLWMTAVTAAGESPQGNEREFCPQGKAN
Experiment: ELISA, periplasmic extract on biotinylated mIL-12Rβ2, signal over control wells

Binder | ELISA binding mIL-12RB2/control / ratio
anti-IL-12Rβ2 VHH clone 20530 (VHH, not shown: small tags and cut ends, tested as periplasmic extract; also called 2CAMS7) VHH: QVQLQESGGGLVQAGDSLRLSCAASGRTFSNYNMGWLRQAPGKEREFVTGISSAGSWIGDITSYADSVKGRFTISRDNAKNILYLQMNSLKPEDTAVYYCAAAYHGSRYYVGSTANEYTTWGQGTQVTVSS | 3.8
anti-IL-12Rβ2 VHH clone 20408 (VHH, not shown: small tags and cut ends, tested as periplasmic extract; also called 3CAHS172) VHH: QVQLQESGGGSVQAGGSLRLSCGASGFTFSSFGMHWFRQAPGKGQEWVATISSSGGTTYYSDSVKGRFTISRDNAKNTLYLQMNSLKPEDTALYYCARDVTGAVRGQGTQVTVSS | 1.11

All figures here come from patent US20260209362A1.
